study_target: HLA-B*35:01
test_summary: IEDB peptide-MHC binding, purified MHC/competitive/radioactivity; filed as Kd, often an IC50 or EC50 that approximates it; bounds were set here for any values at or beyond the usual limits of such assays
conditions_used: source organism: Vaccinia virus WR
Lab note: anything with Kd below 2000 nM is marked class 1; values at 2000 nM or higher are marked class 0.

Sample answers from the record:
>>> df
   sequence_code  qualitative_label
0     DPTFQLLNMI            class 0
1     DPRLVAEHRF            class 0
2     DPDHYKDYAF            class 1
3     VPDIKLDAVL            class 1
4     KPEVRIPVDL            class 0
5     LPSLIKTILA            class 0

Turning now to a further sequence:
Lab log: compare recorded Kd with 2000 nM; is it strictly lower for ILMIFISSFL ?
class 0

* * *

study_target: HLA-A*11:01
test_summary: IEDB peptide-MHC binding, purified MHC/direct/fluorescence; filed as Kd, often an IC50 or EC50 that approximates it; bounds were set here for any values at or beyond the usual limits of such assays
conditions_used: source organism: Mycobacterium tuberculosis
measured_attribute: pKd
Lab note — pKd values are minus log10 of concentrations in M.

# assay system HLA-A*11:01: give pKd of YTQLRFPKK
8.37

* * *

study_target: HLA-A*24:02
test_summary: IEDB peptide-MHC binding, purified MHC/competitive/radioactivity; filed as Kd, often an IC50 or EC50 that approximates it; bounds were set here for any values at or beyond the usual limits of such assays
conditions_used: source organism: Mammarenavirus juninense
measured_attribute: Kd (nM)
Report only the number, with the unit nM understood.

Supply Kd measured with HLA-A*24:02 for LYTVKYPNL .
2430

* * *

study_target: HLA-B*15:01
test_summary: IEDB peptide-MHC binding, purified MHC/direct/fluorescence; filed as Kd, often an IC50 or EC50 that approximates it; bounds were set here for any values at or beyond the usual limits of such assays
conditions_used: source organism: Ebola virus - Gabon (1994-1997)
measured_attribute: Kd

Identify Kd associated with the sequence KTNDFAPAW
≥ 5 µM

* * *

study_target: HLA-A*31:01
test_summary: IEDB peptide-MHC binding, purified MHC/direct/fluorescence; filed as Kd, often an IC50 or EC50 that approximates it; bounds were set here for any values at or beyond the usual limits of such assays
conditions_used: source organism: Cryptosporidium parvum
measured_attribute: Kd

Identify the reported Kd for the following entry. DFIGKTIGF
≥ 20 µM

* * *

study_target: HLA-A*30:01
test_summary: IEDB peptide-MHC binding, purified MHC/direct/fluorescence; filed as Kd, often an IC50 or EC50 that approximates it; bounds were set here for any values at or beyond the usual limits of such assays
conditions_used: source organism: Yersinia pestis
measured_attribute: Kd

Assign Kd to the following record: VPRVHNQPQ
≥ 20 µM

* * *

Measured Kd of individual entries
study_target: HLA-B*57:01
test_summary: IEDB peptide-MHC binding, purified MHC/competitive/fluorescence; filed as Kd, often an IC50 or EC50 that approximates it; bounds were set here for any values at or beyond the usual limits of such assays
conditions_used: source organism: Zaire ebolavirus

>>> df
   sequence_code  observed_value
0      KRLQILGYL         ≥ 20 µM

Consider the additional sequence presented here.
Supply Kd value. Item: SWHHTSDDF
≥ 20 µM

* * *

study_target: HLA-B*58:01
test_summary: IEDB peptide-MHC binding, purified MHC/competitive/fluorescence; filed as Kd, often an IC50 or EC50 that approximates it; bounds were set here for any values at or beyond the usual limits of such assays
conditions_used: source organism: Escherichia coli O139:H28 str. E24377A
measured_attribute: pKd
Scale for pKd: -log10 of concentration given in mol/L; no unit attached.

Please list pKd recorded for the sequence YALATQVEF
8.35

* * *

study_target: HLA-A*26:01
test_summary: IEDB peptide-MHC binding, purified MHC/competitive/fluorescence; filed as Kd, often an IC50 or EC50 that approximates it; bounds were set here for any values at or beyond the usual limits of such assays
conditions_used: source organism: Burkholderia orbicola
pKd: −log10 of the molar value.
measured_attribute: pKd

Return pKd (reported value) for this sequence: RIEQLYPFA
≤ 4.70

* * *

study_target: HLA-A*02:01
test_summary: IEDB peptide-MHC binding, purified MHC/direct/fluorescence; filed as Kd, often an IC50 or EC50 that approximates it; bounds were set here for any values at or beyond the usual limits of such assays
conditions_used: source organism: Itapua hantavirus
measured_attribute: pKd
Please keep in mind that pKd is minus log10 of the molar concentration; only the number is needed.

Param request: pKd | system HLA-A*02:01 | item YTFTSLFSL
8.82

* * *

pKd overview
study_target: HLA-A*01:01
test_summary: IEDB peptide-MHC binding, purified MHC/competitive/fluorescence; filed as Kd, often an IC50 or EC50 that approximates it; bounds were set here for any values at or beyond the usual limits of such assays
conditions_used: source organism: Salmonella enterica subsp. enterica serovar Typhi
Bear in mind: pKd is minus log10 of a mol/L concentration; give just that figure.

>>> df
   sequence_code  observed_value
0      ITSKEVFTY            7.47

Give the observed pKd of GTTEVNGLY for HLA-A*01:01.
7.82

# return pKd for ISANANFSY , test system: HLA-A*01:01
7.54

* * *

study_target: HLA-B*15:01
test_summary: IEDB peptide-MHC binding, purified MHC/direct/fluorescence; filed as Kd, often an IC50 or EC50 that approximates it; bounds were set here for any values at or beyond the usual limits of such assays
conditions_used: source organism: Vibrio parahaemolyticus AQ3810
pKd: −log10 of the molar value.
measured_attribute: pKd

Quick one: give measured pKd for RLDKPLWLH
≤ 4.70

* * *

study_target: HLA-A*30:01
test_summary: IEDB peptide-MHC binding, purified MHC/competitive/radioactivity; filed as Kd, often an IC50 or EC50 that approximates it; bounds were set here for any values at or beyond the usual limits of such assays
conditions_used: source organism: Lassa virus Josiah
measured_attribute: pKd
Lab note — pKd values are minus log10 of concentrations in M.

Give pKd for DCIMTSYQYL
5.35

* * *

study_target: HLA-A*11:01
test_summary: IEDB peptide-MHC binding, purified MHC/direct/fluorescence; filed as Kd, often an IC50 or EC50 that approximates it; bounds were set here for any values at or beyond the usual limits of such assays
conditions_used: source organism: Pseudomonas aeruginosa UCBPP-PA14
pKd: −log10 of the molar value.
measured_attribute: pKd

GET pKd where system = HLA-A*11:01 and item = GLGGDASAY
≤ 4.70

* * *

study_target: HLA-A*26:01
test_summary: IEDB peptide-MHC binding, purified MHC/competitive/fluorescence; filed as Kd, often an IC50 or EC50 that approximates it; bounds were set here for any values at or beyond the usual limits of such assays
conditions_used: source organism: Escherichia coli O139:H28 str. E24377A
pKd: −log10 of the molar value.
measured_attribute: pKd

Enter measured pKd, system HLA-A*26:01, for the sequence shown: DICSGLQQL
≤ 4.70

* * *

study_target: HLA-A*32:01
test_summary: IEDB peptide-MHC binding, purified MHC/competitive/radioactivity; filed as Kd, often an IC50 or EC50 that approximates it; bounds were set here for any values at or beyond the usual limits of such assays
conditions_used: source organism: Dengue virus 1 Brazil/97-11/1997
// reported Kd for each item listed

Below: 5 sequences and their reported Kd.
>>> print(df.to_string())
   sequence_code  study_target  measured_attribute  observed_value
0     LTARATWATN   HLA-A*32:01                  Kd       ≥ 44.4 µM
1      SLGILCVSI   HLA-A*32:01                  Kd        0.238 µM
2     WNSGYDWITD   HLA-A*32:01                  Kd         4.83 µM
3     GSPGKFWNTT   HLA-A*32:01                  Kd       ≥ 25.7 µM
4     WLVHKQWFLD   HLA-A*32:01                  Kd         2.07 µM

In the following, a different sequence is considered.
Please indicate Kd recorded for KALKLSWFKK
9.28 µM

* * *

study_target: HLA-A*29:02
test_summary: IEDB peptide-MHC binding, purified MHC/competitive/fluorescence; filed as Kd, often an IC50 or EC50 that approximates it; bounds were set here for any values at or beyond the usual limits of such assays
conditions_used: source organism: Brucella melitensis bv. 1 str. 16M
pKd: −log10 of the molar value.
measured_attribute: pKd

Please supply the value of reported pKd for the item AVGVVCTGL
≤ 4.70
